This listing pairs molecules with measured thermal shift delta Tm.
- Tested on: LOC_OS05G16824-cb004
- method_summary: thermal shift delta Tm vs DMSO control; higher = stronger stabilization (binding);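 further: purified Escherichia coli-expressed rice kinase domain construct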
- measurement_parameters: 12.5 µM; protein concentration 2 µM
Answer format: numeric, °C implied, no suffix.

Reference set (2 entries):
CN1CC(O)C2=C/C(=N/NC(N)=O)C(=O)C=C21 (stereo not drawn) :: -3.49
Cc1cc(Nc2ncc(Cl)c(Nc3ccccc3S(=O)(=O)C(C)C)n2)c(OC(C)C)cc1C1CCNCC1 :: -1.5

Proceeding to the next molecule to report its thermal shift delta Tm.
Tell me the measured thermal shift delta Tm of CN1CCN(Cc2ccc(NC(=O)Nc3ccc(Oc4ccnc(N)n4)cc3)cc2C(F)(F)F)CC1 , please. -5.04

###

- System: LOC_OS01G52050-cb004
- method_summary: thermal shift delta Tm vs DMSO control; higher = stronger stabilization (binding)
- measurement_parameters: 12.5 µM; protein concentration 2 µM
measured_attribute: thermal shift delta Tm (°C)
Reply with just the number (in °C).

Check out these entries, answers already filled in.
Oc1ccc(-c2nc(-c3ccc(F)cc3)c(-c3ccncc3)[nH]2)cc1 :: 0.5
CCOC(=O)c1cnc2ccc(-c3cncc(NS(=O)(=O)c4ccccc4)c3)cn12 :: 0.54
O=C(NCc1ccccc1)c1csc(Nc2ccncn2)n1 [Thiazovivin] :: 2.17
O=C1NC(=O)/C(=C/c2cccc(C(F)(F)F)c2)S1 :: 0.12
O=C(c1ccc(/C=C/c2n[nH]c3ccccc23)cc1)N1CCNCC1 :: 7.26

Quick check: thermal shift delta Tm on LOC_OS01G52050-cb004, item COc1cc(N2CCC(N3CCN(C)CC3)CC2)ccc1Nc1ncnc(Nc2ccccc2S(=O)(=O)C(C)C)n1 ? 0.61

GET /values?readout=thermal shift delta Tm&system=LOC_OS01G52050-cb004&item= C=CC(=O)Nc1cccc(Oc2nc(Nc3ccc(N4CCN(C)CC4)cc3)ncc2Cl)c1 3.38

###

Recorded measurements of thermal shift delta Tm, one per entry
- System: LOC_OS01G01410-cb001
- method_summary: thermal shift delta Tm vs DMSO control; higher = stronger stabilization (binding)
- measurement_parameters: 12.5 µM; protein concentration 2 µM
Report the figure in °C without appending any unit label.

Below, 2 compounds whose answers are already recorded.
C=C(C)[C@@H]1CC[C@]2(C)CC[C@]3(C)[C@H](CC[C@@H]4[C@@]5(C)CC[C@H](O)C(C)(C)[C@@H]5CC[C@]43C)[C@@H]12 [Lupeol] :: 0.2
CSc1cccc(Nc2ncc3cc(-c4c(Cl)cccc4Cl)c(=O)n(C)c3n2)c1 :: 0.57

So what thermal shift delta Tm did CN1C(=O)[C@@H](NC(=O)c2n[nH]c(Cc3ccccc3)n2)COc2ccccc21 get with LOC_OS01G01410-cb001? 0.8

Checklist item: thermal shift delta Tm tested on LOC_OS01G01410-cb001, entry COc1ccc2c(Oc3ccc(NC(=O)c4c(C)n(CC(C)(C)O)n(-c5ccccc5)c4=O)nc3)ccnc2c1 , value? 0.36

###

- System: LOC_OS03G04050-cb001
- method_summary: thermal shift delta Tm vs DMSO control; higher = stronger stabilization (binding)
- measurement_parameters: 12.5 µM; protein concentration 2 µM
thermal shift delta Tm: recorded values
Please reply with the bare figure in °C and do not write the unit itself.

O=C(Cc1ccc(-c2ccc(OCCN3CCOCC3)cc2)cn1)NCc1ccccc1 :: 0.31
Cc1nc(NC(=O)N2CCC[C@H]2C(N)=O)sc1-c1ccnc(C(C)(C)C(F)(F)F)c1 :: 0.28

Param item = O=C(/C=C/c1ccc(O)c(O)c1)c1ccc(O)cc1O ; retrieve measured thermal shift delta Tm. 1.9

What value of thermal shift delta Tm has been recorded for this entry: CC(C)(C)S(=O)(=O)c1ccc2nccc(Nc3n[nH]c4ccc(F)cc34)c2c1 0.15

What value of thermal shift delta Tm has been reported for the following molecule? O=c1cc(N2CCOCC2)oc2c1ccc1ccccc12 0.58

Please report the recorded thermal shift delta Tm for CO[C@H]1C[C@@H]2CC[C@@H](C)[C@@](O)(O2)C(=O)C(=O)N2CCCC[C@H]2C(=O)O[C@H]([C@H](C)C[C@@H]2CC[C@@H](OP(C)(C)=O)[C@H](OC)C2)CC(=O)[C@H](C)/C=C(\C)[C@@H](O)[C@@H](OC)C(=O)[C@H](C)C[C@H](C)/C=C/C=C/C=C/1C . 0.25

Data request, read-out thermal shift delta Tm, for CO[C@H]1C[C@@H]2CC[C@@H](C)[C@@](O)(O2)C(=O)C(=O)N2CCCC[C@H]2C(=O)O[C@H]([C@H](C)C[C@@H]2CC[C@H](n3cnnn3)[C@H](OC)C2)CC(=O)[C@H](C)/C=C(\C)[C@@H](O)[C@@H](OC)C(=O)[C@H](C)C[C@H](C)/C=C/C=C/C=C/1C 0.79

What value of thermal shift delta Tm has been recorded for this entry: Cc1cc2c(F)c(Oc3ncnn4cc(OC[C@@H](C)O)c(C)c34)ccc2[nH]1 0.46

Consider the molecule CCCCCCCCCC(=O)CC(O)S(=O)(=O)O (configuration not stated) [Sodium Houttuyfonate] and give its measured thermal shift delta Tm. 0.5

Any idea what its thermal shift delta Tm is? The molecule is Cc1ccc(-n2nc(C(C)(C)C)cc2NC(=O)Nc2ccc(OCCN3CCOCC3)c3ccccc23)cc1 0.33

###

- Test system: LOC_OS01G52050-cb004
- Sequence (whole entry): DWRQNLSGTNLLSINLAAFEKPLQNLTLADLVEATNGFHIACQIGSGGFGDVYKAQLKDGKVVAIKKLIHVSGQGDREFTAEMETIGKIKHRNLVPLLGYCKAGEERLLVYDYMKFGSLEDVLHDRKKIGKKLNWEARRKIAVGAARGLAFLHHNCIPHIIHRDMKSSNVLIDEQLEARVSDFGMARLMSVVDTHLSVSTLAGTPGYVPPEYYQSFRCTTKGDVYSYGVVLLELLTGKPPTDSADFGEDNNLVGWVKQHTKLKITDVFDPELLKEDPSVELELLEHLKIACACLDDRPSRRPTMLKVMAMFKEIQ
- method_summary: thermal shift delta Tm vs DMSO control; higher = stronger stabilization (binding)
- measurement_parameters: 12.5 µM; protein concentration 2 µM
Label T when thermal shift delta Tm is at or above 0.1 °C; anything below gets F.

These solved cases illustrate the format of a correct answer.
O=S(=O)(NCCNC/C=C/c1ccc(Br)cc1)c1cccc2cnccc12 :: T
CC(C)(CCCCCC(O)CCCCCC(C)(C)C(=O)O)C(=O)O :: F
CN(C)C/C=C/C(=O)Nc1cc2c(Nc3ccc(F)c(Cl)c3)ncnc2cc1O[C@H]1CCOC1 [Afatinib (BIBW2992)] :: T
CN(C)Cc1cccc(N=C(c2ccccc2)c2c(O)[nH]c3cc(C(=O)N(C)C)ccc23)c1 :: T
Fc1ccc2[nH]ccc2c1-c1nc(N2CCOCC2)c2sc(CN3CCN(CC4CC4)CC3)cc2n1 :: F
Oc1c(F)cc(-c2cnccc2-c2ccc(N3CCOCC3)cc2)cc1F :: F
Cc1cc(Nc2ncc(Cl)c(Nc3ccccc3S(=O)(=O)C(C)C)n2)c(OC(C)C)cc1C1CCNCC1 [Ceritinib (LDK378)] :: T
O=c1cc(N2CCOCC2)oc2c1ccc1ccccc12 :: T
C=CC(=O)Nc1cccc(Oc2nc(Nc3ccc(N4CCN(C)CC4)cc3OC)ncc2Cl)c1 :: T
COc1ccc(C(=O)Nc2sc3c(c2C(N)=O)CCCC3)cc1OC :: T

Consider the record given below.
Hi, just wondering whether CNc1nc(-c2ccc3c(N)n[nH]c3c2)cc(N2C[C@@H](C(=O)NC3CCCCC3)CC[C@H]2C)n1 shows thermal shift delta Tm of 0.1 °C or higher. F

###

A collection of compounds and their measured thermal shift delta Tm
- System: LOC_OS02G08530-cb003
- method_summary: thermal shift delta Tm vs DMSO control; higher = stronger stabilization (binding)
- measurement_parameters: 12.5 µM; protein concentration 2 µM
Write the value in °C as a bare number.

CC1=C(C(=O)Nc2ccc3[nH]ncc3c2)C(c2ccc(F)cc2)NC(=O)N1 (stereo not given) :: 0.77
CC(C)CC(=O)Nc1n[nH]c2c1CN(C(=O)C1CCN(C)CC1)C2(C)C :: 0.95
CCN1CCN(Cc2ccc(Nc3ncc(F)c(-c4cc(F)c5nc(C)n(C(C)C)c5c4)n3)nc2)CC1 :: 2.49
CNC(=O)c1cccc(-c2ccc3c(N4CCOC[C@@H]4C)nc(N4CCOC[C@@H]4C)nc3n2)c1 :: 1.58
C[C@@]1(C(=O)Nc2ccc(F)nc2)CCCN1c1nc(Nc2cc(C3CC3)n[nH]2)c2cccn2n1 :: 0.71

Okay, now this compound:
Give the measured thermal shift delta Tm of Cc1ccc(NC(=O)Nc2cc(C(F)(F)F)ccc2F)cc1Nc1ccc2c(c1)NC(=O)/C2=C\c1ccc[nH]1 . -2.7
